biological target: HLA-A2/MAGE-A4 peptide MHC (pMHC) complex on cells (human); assay: cell-based or functional assay
RECORDED ENDPOINT: EC50 (pM), activation of PGLALA-CAR-J cells in presence of MAGE-A4 peptide pulsed T2 cells
Please give a number only; it is taken to be in pM.

Quick one: EC50 (pM), activation of PGLALA-CAR-J cells in presence of MAGE-A4 peptide pulsed T2 cells for Molecule I (antibody, V domains shown, also called 007D10 IgG antibody) VH: YPQLVESGGGLVKPGGSLRLSCAARYPFTRLDMSWVRQAPGKGLEWVGSISPKGGSTYYNDNVLGRFTISRDNSKNTLYLQMNSLRAEDTAVYYCARDWGFFDNWGQGTLVTVSS VL: AIQMTQSPSSLSASVGDRVTITCRASQSISNYLAWYQQKPGKAPKLLIYNASHPEYDVPSRFSGSGSGTDFTLTISSLQPEDFATYYCQQYSSHPYTFGQGTKLEIK ?
182
